- Test system: PC-3 prostate
- run_description: NCI-60 one-dose screen, 48 h (100 = growth as untreated, 0 = no growth, -100 = all killed)
- recorded_conditions: 10 µM unless noted
Compounds without any hit were thinned out: in the full panel of roughly 83,000, 20% have a hit.
Mark 1 for reported growth of 90% or greater; mark 0 for anything smaller.

{"molecule": "COc1ccc(/C=N/Nc2nc3ccccc3s2)cc1", "category": 0}
{"molecule": "O=COCCCc1ccccc1", "category": 1}
{"molecule": "Cc1cc(=NO)cc(C)n1O", "category": 1}
{"molecule": "O=S(=O)(O)c1ccc2cc(O)ccc2c1", "category": 1}
{"molecule": "NNc1ncnc2cccc(Cl)c12", "category": 1}
{"molecule": "CCOP(=O)(OCC)/C(C#N)=C/c1c(C)[nH]c2ccccc12", "category": 0}
{"molecule": "N#Cc1c[nH]n2ccnc12", "category": 1}
{"molecule": "CCOC(=O)c1ccc(N2C(=O)C(Cl)(c3ccccc3)C2c2ccco2)cc1 (stereo not given)", "category": 0}
{"molecule": "C/C(CC(C)C)=N/NC(N)=S", "category": 1}
{"molecule": "Cc1nc(Nc2ccc(Cl)cc2)c2cnn(-c3ccccc3)c2n1", "category": 1}
{"molecule": "C/C=C/C(=O)OCCCCCCCCCCCC", "category": 1}
{"molecule": "COc1cc(Cl)ccc1C", "category": 0}
{"molecule": "CS(=O)(=O)c1nsc(N)n1", "category": 1}
{"molecule": "COc1cc2oc3cc(=O)cc4oc(-c5ccccc5)cc(c2c2c1CCC(c1ccccc1)O2)c43 (stereo not given)", "category": 0}
{"molecule": "COc1ccc(CCN=Cc2ccc(Cl)cc2)cc1OC", "category": 1}

----------
- Tested on: MALME-3M melanoma
- run_description: NCI-60 one-dose screen, 48 h (100 = growth as untreated, 0 = no growth, -100 = all killed)
- recorded_conditions: 10 µM unless noted
This is part of a sample that, as a whole, favours compounds with a hit. Of some 83,000 tested, about 20% had one in any assay.

{"compound": "COc1ccc(CCn2cnn3c(=O)c4ccccc4nc3c2=O)cc1OC", "growth, %": 114}
{"compound": "CCc1ccc(OC(=O)CCl)cc1", "growth, %": 96.9}
{"compound": "C#CCOC(=O)C(N)CS (configuration not stated)", "growth, %": 96.6}
{"compound": "COCCNC(C)=O", "growth, %": 114}
{"compound": "O=[N+]([O-])c1ccc(N2CCN=N2)cc1", "growth, %": 106}
{"compound": "CCN(C)c1ccccc1", "growth, %": 96}
{"compound": "O=c1[nH]c(=S)[nH]n1C(=S)n1[nH]c(=S)[nH]c1=O", "growth, %": 102}
{"compound": "COC(=O)c1nc(=S)[nH]c(C(=O)OC)c1C(=O)c1ccc(OC)cc1", "growth, %": 97.5}
{"compound": "COC(=O)c1nc(=S)[nH]c(C(=O)OC)c1C(=O)c1ccccc1", "growth, %": 97.1}
{"compound": "CN(C)CC(CN(C)C)C(O)c1ccccc1 (configuration not stated)", "growth, %": 105}
{"compound": "Cc1ccc(NC(=S)N/C=C(\\c2ccccc2)S(=O)Cc2ccccc2)c(C)c1 (configuration not stated)", "growth, %": 106}
{"compound": "CCC(C)(O)CCC(C)(O)CC (configuration not stated)", "growth, %": 93.6}

----------
- Test system: SK-MEL-2 melanoma
- run_description: NCI-60 one-dose screen, 48 h (100 = growth as untreated, 0 = no growth, -100 = all killed)
- recorded_conditions: 10 µM unless noted
This is part of a sample that, as a whole, favours compounds with a hit. Of some 83,000 tested, about 20% had one in any assay. Activity calls are given as the source filed them. Rule for the calls: active = growth percent below 10; inactive = the rest.
Measured growth of individual entries
quantity_measured: growth

{"compound": "NCCCCCC(=O)O", "quantity_measured": "growth", "recorded_value": "110% (inactive) [middle of 4 runs]"}
{"compound": "CCc1ccccc1-n1[nH]c(C)c(C=N)c1=O", "quantity_measured": "growth", "recorded_value": "106% (inactive)"}
{"compound": "CCOC(=O)c1ccc(N2C(=O)C(Cl)(c3ccccc3)C2c2ccco2)cc1 (stereo not drawn)", "quantity_measured": "growth", "recorded_value": "98.7% (inactive)"}
{"compound": "N=c1sc2ccccc2n1CC(=O)O", "quantity_measured": "growth", "recorded_value": "95.4% (inactive)"}
{"compound": "O=c1[nH]c(=O)c2[nH]c(=O)[nH]c2[nH]1", "quantity_measured": "growth", "recorded_value": "137% (inactive)"}
{"compound": "CC(C)(C)OC(=O)NCCc1ccc(N)cc1", "quantity_measured": "growth", "recorded_value": "86.1% (inactive)"}
{"compound": "CCOC(=O)c1ccc(C(=N)N)cc1", "quantity_measured": "growth", "recorded_value": "113% (inactive)"}
{"compound": "CN(C)C(=S)N(C)C", "quantity_measured": "growth", "recorded_value": "104% (inactive)"}
{"compound": "CC(=O)c1cccc(OC(=O)c2ccccc2)c1", "quantity_measured": "growth", "recorded_value": "88.9% (inactive)"}
{"compound": "O=c1[nH]c(=O)n(C2OC(CO)C(O)C2O)cc1I (stereo not drawn)", "quantity_measured": "growth", "recorded_value": "124% (inactive)"}
{"compound": "Nc1nc(-c2ccccn2)cc(-c2cc(-c3ccccn3)nc(N)n2)n1", "quantity_measured": "growth", "recorded_value": "112% (inactive)"}
{"compound": "CC1CC(O)CC(C)(C)C1.CC1CC(O)CC(C)(C)C1.CC1CC(O)CC(C)(C)C1.CC1CC(O)CC(C)(C)C1.[Ti] (stereo not drawn)", "quantity_measured": "growth", "recorded_value": "93.9% (inactive)"}
{"compound": "O=C1c2cccnc2-c2ncccc21", "quantity_measured": "growth", "recorded_value": "122% [100 µM] (inactive)"}

----------
Measured growth of individual entries
- Test system: LOX IMVI melanoma
- run_description: NCI-60 one-dose screen, 48 h (100 = growth as untreated, 0 = no growth, -100 = all killed)
- recorded_conditions: 10 µM unless noted
Compounds without any hit were thinned out: in the full panel of roughly 83,000, 20% have a hit.
quantity_measured: growth (%)

{"compound": "CCOc1ccc(/C=C\\C(=O)O)cc1", "units_label": "%", "recorded_value": 105}
{"compound": "CC1=CC(=O)C=CC1=Nc1ccc(N(C)C)cc1", "units_label": "%", "recorded_value": 83.4}
{"compound": "Cc1ccc(NC(=S)N/C=C(\\c2ccccc2)S(=O)Cc2ccccc2)c(C)c1 (centres undefined)", "units_label": "%", "recorded_value": 102}
{"compound": "COC(=O)c1nc(=S)[nH]c(C(=O)OC)c1C(=O)c1ccccc1", "units_label": "%", "recorded_value": 94.2}

----------
- Tested on: UO-31 renal
- run_description: NCI-60 one-dose screen, 48 h
- recorded_conditions: 10 µM unless noted
This is part of a sample that, as a whole, favours compounds with a hit. Of some 83,000 tested, about 20% had one in any assay. Calls of active or inactive are those of the source. The calls were made as follows: active = growth percent below 10; inactive = the rest.
Outcome codes: active, inactive

{"molecule": "Cc1ccc(S(=O)(=O)n2ccnc2)cc1", "category": "inactive"}
{"molecule": "CC(C)(C)OC(=O)c1ccc(NCc2cc(O)ccc2O)cc1", "category": "active"}
{"molecule": "Nc1ccc2ccc(NS(=O)(=O)N3CCCCC3)cc2c1", "category": "inactive"}
{"molecule": "CC1CC(O)CC(C)(C)C1.CC1CC(O)CC(C)(C)C1.CC1CC(O)CC(C)(C)C1.CC1CC(O)CC(C)(C)C1.[Ti] (stereo unspecified)", "category": "inactive"}
{"molecule": "COCCCNC1=C(C#N)C(=O)NC(c2cccs2)S1 (stereo unspecified)", "category": "inactive"}
{"molecule": "C/C=C(/C(=O)NC(N)=O)C(C)C", "category": "inactive"}
{"molecule": "O=C(O)COc1ccccc1F", "category": "inactive"}
{"molecule": "Cn1c(-c2ccccc2)cc(=O)cc1-c1ccccc1", "category": "inactive"}
{"molecule": "COc1ccc(CCO)cc1", "category": "inactive"}
{"molecule": "NCCCCCC(=O)O", "category": "inactive"}
{"molecule": "NNc1ncnc2cccc(Cl)c12", "category": "inactive"}
{"molecule": "Cc1cc(=NO)cc(C)n1O", "category": "inactive"}
{"molecule": "CCOC(=O)c1ccncc1", "category": "inactive"}
{"molecule": "O=C1C=CC(n2cc(F)c(=O)[nH]c2=O)O1 (stereo unspecified)", "category": "inactive"}
{"molecule": "NC(=O)Cc1nc(O)cc(=O)[nH]1", "category": "inactive"}
{"molecule": "CCCCNC(=O)c1ccccc1C", "category": "inactive"}
{"molecule": "O=C1C=CC(=O)N1Cc1ccco1", "category": "inactive"}
{"molecule": "CCC/C(=N/NC(N)=O)c1ccco1", "category": "inactive"}
{"molecule": "COC(=O)c1nc(N)nc(C(=O)OC)c1C(=O)c1cccc2ccccc12", "category": "inactive"}
{"molecule": "CC(=O)Nc1ccc2oc(=O)ccc2c1", "category": "inactive"}
{"molecule": "N#Cc1c[nH]n2ccnc12", "category": "inactive"}
{"molecule": "Clc1ccc2sc(-c3ccccc3)nc2c1", "category": "inactive"}
{"molecule": "CCn1c2ccc(N(C)C)cc2c2cc(N(C)C)ccc21", "category": "inactive"}
{"molecule": "CCOP(C)(=O)/C(Cc1ccc(OC)c(OC)c1)=N\\O (stereo unspecified)", "category": "inactive"}
{"molecule": "COc1cc2oc3cc(=O)cc4oc(-c5ccccc5)cc(c2c2c1CCC(c1ccccc1)O2)c43 (stereo unspecified)", "category": "inactive"}
{"molecule": "CSc1nc(N)c(N)c(N)n1", "category": "inactive"}
{"molecule": "CC(C)=NOC(C)C(=O)O (stereo unspecified)", "category": "inactive"}
{"molecule": "O=C(O)C#Cc1ccc(Cl)cc1", "category": "inactive"}
{"molecule": "CC1=CC(=O)c2cccc(NC3=NCCO3)c21", "category": "inactive"}
{"molecule": "c1ccc2c[n+](Cc3ccc4ccccc4n3)ccc2c1", "category": "inactive"}
{"molecule": "OC1CCCN(Cc2ccccc2)C1 (stereo unspecified)", "category": "inactive"}
{"molecule": "O=C1c2ccccc2CN1c1ccccc1", "category": "inactive"}
{"molecule": "CC(NC(=O)CCl)c1ccccc1 (stereo unspecified)", "category": "inactive"}
{"molecule": "COc1cc(Cl)ccc1C", "category": "inactive"}
{"molecule": "CCOC(=O)c1ccc(C(=N)N)cc1", "category": "inactive"}
{"molecule": "CCCCC/C(C)=N\\NC(N)=S", "category": "inactive"}
